Listed here: items and their measured percent of control (POC) of FACS Geo Mean.
Target Of Assay: T1, hOrai1-mOrai1 ECL2 (SKPPA) protein (human/mouse chimera, UniProt Q96D31 1-301)
T1 construct: also called Ch
T1 sequence (Q96D31 other isoform, or with tags, fused parts or gaps): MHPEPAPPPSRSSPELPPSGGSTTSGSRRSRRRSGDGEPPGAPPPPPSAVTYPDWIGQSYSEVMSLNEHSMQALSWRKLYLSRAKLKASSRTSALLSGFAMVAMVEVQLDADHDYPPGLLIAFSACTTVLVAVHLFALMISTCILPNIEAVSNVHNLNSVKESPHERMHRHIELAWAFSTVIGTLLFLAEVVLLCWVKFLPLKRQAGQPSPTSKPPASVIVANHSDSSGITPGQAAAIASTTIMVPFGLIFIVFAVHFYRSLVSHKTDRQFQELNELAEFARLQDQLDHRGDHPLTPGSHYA
Method Notes: FACS, 293EBNA, RFI-POC grade
Set-up: concentration or dose not given beside the values

Binder: mAb 2C1.1 (antibody, human IgG2, lambda, V domains shown, fully human IgG2 lambda, Campaign 1; tested hybridoma-purified and recombinant; also called anti-hOrai1 mAb 2C1.1) VH: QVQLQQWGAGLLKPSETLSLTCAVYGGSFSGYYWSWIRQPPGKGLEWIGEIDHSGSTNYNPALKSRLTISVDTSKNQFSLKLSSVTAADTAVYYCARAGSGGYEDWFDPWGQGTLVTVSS VL: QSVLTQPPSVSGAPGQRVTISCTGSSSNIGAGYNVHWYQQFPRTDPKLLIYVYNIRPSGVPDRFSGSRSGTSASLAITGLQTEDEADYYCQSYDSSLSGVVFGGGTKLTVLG
Endpoint Result: 5 to 40%

Binder: mAb 2B4.1 (antibody, human IgG2, lambda, V domains shown) VH: QVQLVQSGAEVKKPGASVKVSCKASGYTFTDYYMHWVRQAPGQGLEWMGWINPNSGGTNYVQKFQDRVTMTRDTSITTAYMELTRLRSDDTAVYYCAREEGDYGMDVWGQGTTVTVSS VL: QSVLTQPPSVSGAPGQRVTISCTGSNSNIGTGYDVHWYQKLPGTAPRLLIYSHFNRPSGVPDRFSGSTSGTSASLAITGLQAEDEADYYCQSYDSSLSGSVFGGGTKLTVLG
Endpoint Result: 1 to 5%

--- query ---
// query percent of control (POC) of FACS Geo Mean value for entry mAb 2B7.1 (antibody, human IgG2, V domains shown, fully human, Campaign 1) VH: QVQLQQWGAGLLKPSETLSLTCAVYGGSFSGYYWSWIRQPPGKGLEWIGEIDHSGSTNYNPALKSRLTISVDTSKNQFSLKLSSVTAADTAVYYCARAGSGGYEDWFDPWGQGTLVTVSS VL: QSVLTQPPSVSGAPGQRVTISCTGSSSNIGTGYNVHWYQQFPRTDPKLLIYVYNIRPSGVPDRFSGSRSGTSASLAITGLQTEDEADYYCQSYDSSLSGVVFGGGTKLTVLG
5 to 40%
